Source of measurements: patent US20090137572A1

ASSAY SYSTEM: CDK2-cycline E (Homo sapiens, UniProt P24941)
ASSAY REMARKS: Kinase assay (radioactive phosphate incorporation), CDK2-cyclin E
Assay type: biochemical
CONDITION LABEL: read-out: Kinase Inhibition pIC50 CDK2-cycline E (converted)
RECORDED ENDPOINT: IC50 (µM)

{"MOLECULAR STRING": "Cc1nc(C)c(-c2ccnc(Nc3cccc(S(=O)(=O)NCCO)c3)n2)s1", "UNIT OF MEASURE": "µM", "IC50": 0.316}
{"MOLECULAR STRING": "Cc1nc(N)sc1-c1ccnc(Nc2cccc(S(=O)(=O)NCCO)c2)n1", "UNIT OF MEASURE": "µM", "IC50": 0.126}
{"MOLECULAR STRING": "CC(=O)N1CCN(c2ccc(Nc3nccc(-c4sc(N(C)c5cccnc5)nc4C)n3)cc2)CC1", "UNIT OF MEASURE": "µM", "IC50": 0.398}

I: Cc1nc(CO)sc1-c1ccnc(Nc2ccc(N3CCCCC3)cc2)n1
II: CNc1nc(C)c(-c2ccnc(Nc3ccc(S(=O)(=O)NCCOC)cc3)n2)s1
III: Cc1nc(C)c(-c2ccnc(Nc3cccc(S(C)(=O)=O)c3)n2)s1
IV: CCNc1nc(C)c(-c2ccnc(Nc3ccc(S(=O)(=O)NCCO)cc3)n2)s1
**Query** Ranking field: IC50; order: falling. Answer with the labels in sequence, matching the requested order.
**Result** I, III, IV, II
(I: 2.51 µM, III: 0.316 µM, IV: 0.0158 µM, II: 0.00316 µM)

1: CCNc1nc(C)c(-c2ccnc(Nc3cccc(S(=O)(=O)NCCOC)c3)n2)s1
2: CNc1nc(C)c(-c2ccnc(Nc3ccc(OC)c(C)c3)n2)s1
3: Cc1ccc(Nc2nccc(-c3sc(NC(C)(C)C)nc3C)n2)cc1[N+](=O)[O-]
**Query** Please produce an ascending ranking of these compounds based on IC50. Please list the labels according to the requested order.
**Result** 2, 1, 3
(2: 0.126 µM, 1: 0.398 µM, 3: 1.58 µM)

a: Cc1nc(NC(C)(C)C)sc1-c1ccnc(Nc2ccc(N3CCOCC3)cc2)n1
b: CNc1nc(C)c(-c2ccnc(Nc3ccc(S(=O)(=O)NCCO)cc3)n2)s1
**Query** Which entry shows the lesser value of IC50 here, a or b ? Please respond with the label that marks your chosen entry.
**Result** b

---

ASSAY SYSTEM: CDK7/cyclin H (Homo sapiens)
Sequence (P50613 whole entry): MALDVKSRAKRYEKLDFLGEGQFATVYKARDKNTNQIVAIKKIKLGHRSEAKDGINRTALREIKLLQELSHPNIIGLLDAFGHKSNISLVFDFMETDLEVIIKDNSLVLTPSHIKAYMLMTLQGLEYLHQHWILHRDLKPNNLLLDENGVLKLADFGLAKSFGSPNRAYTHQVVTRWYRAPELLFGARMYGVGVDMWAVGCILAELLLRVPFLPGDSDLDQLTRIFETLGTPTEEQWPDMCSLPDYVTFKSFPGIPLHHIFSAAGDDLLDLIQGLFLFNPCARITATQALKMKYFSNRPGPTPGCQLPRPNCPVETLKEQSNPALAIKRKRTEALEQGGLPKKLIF
Sequence (P51946 whole entry partner): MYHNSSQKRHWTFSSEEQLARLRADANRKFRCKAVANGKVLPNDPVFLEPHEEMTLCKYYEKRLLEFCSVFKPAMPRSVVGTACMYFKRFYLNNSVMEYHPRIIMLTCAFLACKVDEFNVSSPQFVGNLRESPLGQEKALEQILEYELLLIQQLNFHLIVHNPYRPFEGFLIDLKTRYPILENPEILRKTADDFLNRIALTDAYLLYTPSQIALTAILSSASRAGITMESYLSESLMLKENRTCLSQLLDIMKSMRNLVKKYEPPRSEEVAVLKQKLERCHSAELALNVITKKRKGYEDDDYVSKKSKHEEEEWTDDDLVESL
ASSAY REMARKS: CDK 7 assay (CTD peptide substrate)
Type: biochemical
CONDITION LABEL: read-out: Kinase Inhibition pIC50 CDK7-cyclin H (converted)
RECORDED ENDPOINT: IC50 (µM)

Guide cases for IC50, answers given:
{"MOLECULAR STRING": "CCNc1nc(C)c(-c2ccnc(Nc3ccc(CNC(C)=O)cc3)n2)s1", "UNIT OF MEASURE": "µM", "QUANTITATIVE READOUT": 0.2}
{"MOLECULAR STRING": "CCNc1nc(C)c(-c2ccnc(NCc3cccnc3)n2)s1", "UNIT OF MEASURE": "µM", "QUANTITATIVE READOUT": 6.31}
{"MOLECULAR STRING": "COc1cc(Nc2nccc(-c3sc(C)nc3C)n2)cc(OC)c1", "UNIT OF MEASURE": "µM", "QUANTITATIVE READOUT": 5.01}

A: Cc1nc(C)c(-c2ccnc(Nc3ccc(N4CCN(CC(=O)NC(C)C)CC4)cc3)n2)s1
B: CC(=O)NS(=O)(=O)c1cccc(Nc2nccc(-c3sc(N)nc3C)n2)c1
**Query** Please tell me which of the two, A or B , has the higher reported IC50 value. Your choice should be expressed through its label.
**Result** A
(A: 7.94 µM, B: 1.58 µM)

---

ASSAY SYSTEM: CDK2-cycline E (Homo sapiens)
ASSAY REMARKS: Kinase assay (radioactive phosphate incorporation), CDK2-cyclin E
Format: biochemical
CONDITION LABEL: read-out: Kinase Inhibition pIC50 CDK2-cycline E (converted)
RECORDED ENDPOINT: IC50 (nM)

1: Cc1cc(Nc2nccc(-c3sc(N)nc3C)n2)ccc1N1CCOCC1
2: CC(=O)NS(=O)(=O)c1cccc(Nc2nccc(-c3sc(N)nc3C)n2)c1
3: CCNc1nc(C)c(-c2ccnc(Nc3ccc(S(=O)(=O)NCCOC)cc3)n2)s1
4: CCNc1nc(C)c(-c2ccnc(Nc3ccc4c(c3)OCO4)n2)s1
**Query** Put the items in sequence by IC50, from largest down. Dear reader, please state the labels in the requested order.
**Result** 1, 2, 4, 3

P: Cc1nc(N)sc1-c1ccnc(Nc2ccc3c(c2)OCO3)n1
Q: Cc1nc(C)c(-c2ccnc(Nc3cccc(N4CCOCC4)c3)n2)s1
**Query** Quick check, higher IC50 between P and Q ? Reply briefly: the label of your chosen item.
**Result** Q
(Q: 316 nM, P: 100 nM)

A: Cc1nc(N)sc1-c1ccnc(Nc2cccc(CNS(C)(=O)=O)c2)n1
B: CCNc1nc(C)c(-c2ccnc(Nc3ccc(N4CCSCC4)cc3)n2)s1
**Query** Response body: label of entry with the larger IC50; valid values A , B . Kindly state the label of the option you pick.
**Result** B
(B: 2000 nM, A: 100 nM)

a: CNS(=O)(=O)c1cccc(Nc2nccc(-c3sc(N)nc3C)n2)c1
b: CNc1nc(C)c(-c2ccnc(Nc3ccc(C)c(S(=O)(=O)N4CCOCC4)c3)n2)s1
**Query** Could you please tell me which of these two has the higher IC50: a or b ? // return label of chosen record
**Result** b
(b: 3160 nM, a: 251 nM)

1: CNc1nc(C)c(-c2ccnc(Nc3cccc(S(=O)(=O)NCCO)c3)n2)s1
2: Cc1nc(N)sc1-c1ccnc(Nc2ccc(N3CCOCC3)c(C(N)=O)c2)n1
**Query** Task for the reader: decide whether 1 or 2 has the larger IC50. // caller expects the label of the chosen entry
**Result** 2
(2: 2510 nM, 1: 316 nM)

I: Cc1nc(C)c(-c2ccnc(Nc3ccc(S(=O)(=O)NCc4ccccc4)cc3)n2)s1
II: CNc1nc(C)c(-c2ccnc(Nc3cccc(S(C)(=O)=O)c3)n2)s1
**Query** Of the two listed items, which has the higher IC50? First: I Second: II Answer by stating the label of the chosen item.
**Result** I

a: CCNc1nc(C)c(-c2ccnc(Nc3ccc4c(c3)OCCO4)n2)s1
b: COc1cc(Nc2nccc(-c3sc(NCCc4ccccc4)nc3C)n2)cc(OC)c1OC
c: CCNc1nc(C)c(-c2ccnc(Nc3ccc(N4CCOCC4)c(Cl)c3)n2)s1
**Query** List by increasing IC50. # respond with the labels, arranged in the requested order
**Result** c, a, b

---

ASSAY SYSTEM: Aurora A kinase (Homo sapiens, UniProt O14965)
Construct: purchased
Sequence (O14965 whole entry): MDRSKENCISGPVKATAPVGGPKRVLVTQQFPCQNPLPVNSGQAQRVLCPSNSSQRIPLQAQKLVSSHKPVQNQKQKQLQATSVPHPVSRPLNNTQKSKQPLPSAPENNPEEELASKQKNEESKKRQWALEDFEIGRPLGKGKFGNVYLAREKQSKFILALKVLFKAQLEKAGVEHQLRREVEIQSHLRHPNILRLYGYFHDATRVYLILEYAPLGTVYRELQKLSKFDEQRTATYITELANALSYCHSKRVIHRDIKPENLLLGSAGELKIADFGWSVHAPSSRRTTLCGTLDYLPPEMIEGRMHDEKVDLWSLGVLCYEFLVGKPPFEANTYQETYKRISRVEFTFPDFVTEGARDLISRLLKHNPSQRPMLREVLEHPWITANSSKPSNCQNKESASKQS
ASSAY REMARKS: Aurora-A (human) kinase assay (Kemptide substrate)
Type: biochemical
CONDITION LABEL: pIC50 is -log(IC50, M); 15 μM ATP; read-out: Kinase Inhibition pIC50 Aurora A kinase (converted)
RECORDED ENDPOINT: IC50 (nM)

a: Cc1nc(-c2cccnc2)sc1-c1ccnc(Nc2ccc(N3CCOCC3)cc2)n1
b: CC(=O)NCc1cccc(Nc2nccc(-c3sc(-c4cccs4)nc3C)n2)c1
c: CC(=O)NCc1cccc(Nc2nccc(-c3sc(N(C)c4cc(Cl)cc(Cl)c4)nc3C)n2)c1
d: CNc1nc(C)c(-c2ccnc(Nc3cc(OC)c(OC)c(OC)c3)n2)s1
**Query** Order by IC50, smallest first, the items presented above. Return the labels ranked in the requested order, please.
**Result** d, b, a, c
(d: 3.98 nM, b: 158 nM, a: 251 nM, c: 2510 nM)

I: Cc1nc(-c2cccnc2)sc1-c1ccnc(Nc2cc(Cl)c(N3CCOCC3)c(Cl)c2)n1
II: Cc1nc(C)c(-c2ccnc(Nc3cccc(CNC(=O)c4ccccn4)c3)n2)s1
**Query** Looking at recorded values for IC50, does I or II come in lower? Return value: the label identifying the chosen record.
**Result** I
(I: 251 nM, II: 794 nM)

A: Cc1nc(C)c(-c2ccnc(Nc3ccc(N4CCCCC4)c(C)c3)n2)s1
B: CNc1nc(C)c(-c2ccnc(Nc3cccc(S(=O)(=O)NC(C)=O)c3)n2)s1
C: Cc1nc(C)c(-c2ccnc(Nc3cccc(CNC(=O)c4ccccc4)c3)n2)s1
D: Cc1nc(CO)sc1-c1ccnc(Nc2ccc(N(C)C)cc2)n1
E: CNc1nc(C)c(-c2ccnc(Nc3cccc(S(=O)(=O)NCCO)c3)n2)s1
**Query** Arrange these compounds by their IC50, starting with the largest number. Please write the labels in the order that was asked for.
**Result** B, A, C, D, E
(B: 1580 nM, A: 398 nM, C: 158 nM, D: 100 nM, E: 39.8 nM)
